test system: HeLa; test: Cytotoxicity against human HeLa cells after 6 days by MTT assay; type: functional, cell-based; settings: 144 h
measured-quantity: pIC50
# pIC50 = -log10(concentration in molar units)

Previously resolved entries follow.
{"columns": ["given-smiles", "system-under-test", "pIC50"],
 "data": [
  ["N/N=C1/c2cc(F)ccc2-n2c1nc1ccccc1c2=O", "HeLa", 4.17],
  ["CC(/C=C(\\O)c1ccccc1)=N\\N=C1\\c2cc(-c3ccc(C(=O)O)cc3)ccc2-n2c1nc1ccccc1c2=O", "HeLa", 5.03],
  ["COc1cccc(/C=N/N=C2/c3cc(Cl)ccc3-n3c2nc2ccccc2c3=O)c1O", "HeLa", 4.44]
]}

Task: What value of measured pIC50 is listed for N/N=C1/c2cc(Cl)ccc2-n2c1nc1ccccc1c2=O ?
Output: 4.25

Task: Next compound up: COc1cccc(/C=N/N=C2/c3cc(F)ccc3-n3c2nc2ccccc2c3=O)c1O
Output: 4.46

Origin of the recorded values: ChEMBL document CHEMBL4043247
